Literature survey of pIC50 (system: 72 kDa type IV collagenase (Homo sapiens)).
Keep it numeric: pIC50 is minus log10 of the concentration in mol/L.

Use the examples below as a reference point.
| COMPOUND | RESULT |
| --- | --- |
| COc1cccc(C(=O)Nc2ccc(-c3ccc(S(=O)(=O)N[C@H](Cc4ccccc4)C(=O)O)cc3)cc2)c1 | 6.18 |
| Cc1cc(COc2ccc(S(=O)(=O)CC(C=C3CCN(Cc4ccccc4)CC3)N(O)C=O)cc2)c2ccccc2n1 (centres unmarked) | 6.00 |
| CC(O)(CS(=O)(=O)c1ccc(Oc2ccccc2)cc1)C(=O)NO (centres unmarked) | 9.30 |
| CC(=C1CCOCC1)C(CS(=O)(=O)c1ccc(OCc2cc(C)nc3ccccc23)cc1)N(O)C=O (centres unmarked) | 4.42 |
| O=C(O)[C@@H](Cc1ccccc1)NS(=O)(=O)c1ccc(-c2noc(-c3cccnc3)n2)cc1 | 6.77 |
| CC(O)(CS(=O)(=O)c1ccc(NC(=O)c2cccc(Cl)c2)cc1)C(=O)NO (centres unmarked) | 7.43 |
| COc1ccc(-c2ccc(S(=O)(=O)N(OC(C)C)[C@H](CCNC(C)=O)C(=O)NO)cc2)cc1 | 9.89 |
| CSCC[C@H](NS(=O)(=O)c1ccc(-c2ccc(OCc3ccc4ccccc4c3)cc2)cc1)C(=O)O | 6.73 |

For the compound Cc1cc(COc2ccc(S(=O)(=O)CC(C=C3CCN(C(=O)OC(C)(C)C)CC3C)N(O)C=O)cc2)c2ccccc2n1 (centres unmarked) , what pIC50 is on record?
5.30

For the compound `CCCc1ccc(-c2nc(-c3ccc(S(=O)(=O)NCC(=O)O)cc3)no2)cc1` , what pIC50 is on record?
7.80

For the compound `Cc1ccc(C#Cc2ccc(S(=O)(=O)N[C@H](Cc3ccccc3)C(=O)O)s2)s1` , what pIC50 is on record?
8.43

For the compound Cc1cccn(CC2(c3ccc(Oc4ccccc4F)cc3)NC(=O)NC2=O)c1=O (centres unmarked) , what pIC50 is on record?
4.29

For the compound COc1ccc(S(=O)(=O)N2[C@H](C(=O)NO)C[C@@H]3CCN(C(=O)CCC4CCCC4)C[C@@H]32)cc1 (relative stereo) , what pIC50 is on record?
6.19

For the compound Cc1cc(Cl)cc(COc2ccc(S(=O)(=O)CC(CC3CCC(=O)CC3)N(O)C=O)cc2)c1 (centres unmarked) , what pIC50 is on record?
5.64
